The compounds listed here are annotated with their melting point.

Example entries begin here.
- Cc1nc2sccn2c(=O)c1CCN1CCC(n2ccc3ccccc32)CC1: 134 °C
- O=[N+]([O-])c1cccnc1N1CCc2ccccc2CC1: 129 to 136 °C
- COc1cc(OC)c(-c2c[nH]c(C3CC3)n2)cc1C=CC(=O)c1ccc(S(N)(=O)=O)cc1: 156 to 160 °C
- O=C1C=CC2=C(C1)Cc1ccccc1OCO2: 93 to 95 °C
- OC(c1ccc2cc(-c3n[nH]c4ccsc34)[nH]c2c1)(C1CC1)C1CC1: 110 to 112 °C

Ask | Requested read-out: melting point. Entry: CCCC(CCC)C(=O)O/N=C(\C)[C@H]1CC[C@H]2[C@@H]3CCC4=CC(=O)CC[C@]4(C)[C@H]3CC[C@]12C
Reply | 78 to 80 °C

Ask | Requested read-out: melting point. Entry: CC(C)(C)C(=O)C(CSc1ccc(Cl)cc1)n1cncn1 (centres undefined)
Reply | 67 °C

Ask | Requested read-out: melting point. Entry: CC(SCC(=O)O)c1ccc(-c2ccccc2F)cc1 (centres undefined)
Reply | 125 to 127 °C

Ask | Requested read-out: melting point. Entry: Cc1cccc(NC(=O)c2ccccc2SSc2ccccc2C(=O)Nc2cccc(C)c2)c1
Reply | 193 to 195 °C

Ask | Requested read-out: melting point. Entry: CC1(CCS)C(=O)N2CCCC(C(=O)O)N2C1=O (centres undefined)
Reply | 165 to 168 °C

Ask | Requested read-out: melting point. Entry: COC(=O)c1ccc(Cn2c(C)nc3ccccc32)cc1
Reply | 100 to 101 °C

Ask | Requested read-out: melting point. Entry: CC(=O)Nc1ncc(C)cc1Br
Reply | 65 to 66 °C

Ask | Requested read-out: melting point. Entry: Cc1c(NCC(C)(C)CNCC(O)COc2ccccc2)n(C)c(=O)n(C)c1=O (centres undefined)
Reply | 111 to 112 °C

Ask | Requested read-out: melting point. Entry: O=C(NC(=O)c1c(F)cccc1F)Nc1cc(F)c(C(F)(F)F)c(F)c1
Reply | 231 °C

Ask | Requested read-out: melting point. Entry: CC(=O)Nc1cc2c(cc1[N+](=O)[O-])N(NC(C)=O)CC2
Reply | 212 to 213 °C

Ask | Requested read-out: melting point. Entry: CC(C)N1C(=O)N(c2ccccc2Cl)CSC1=NC(C)(C)C
Reply | 88 to 89 °C

Ask | Requested read-out: melting point. Entry: N#CCCN1CCC2C(C1)c1ccccc1N2c1ccccc1 (centres undefined)
Reply | 108 °C

Ask | Requested read-out: melting point. Entry: Fc1cc(F)nc(NCc2ccccc2)n1
Reply | 70 to 73 °C

Ask | Requested read-out: melting point. Entry: COC(=O)CN1CC(=O)NC1=NN=Cc1ccccc1
Reply | 149 to 153 °C

Ask | Requested read-out: melting point. Entry: O=C=Nc1ccc(S(=O)(=O)Cl)cc1
Reply | 50 to 52 °C

Ask | Requested read-out: melting point. Entry: COC(=O)C(C)(C(=O)OC)C(C[N+](=O)[O-])c1ccccc1 (centres undefined)
Reply | 130 to 132 °C

Ask | Requested read-out: melting point. Entry: N#CCCC1(C(N)=O)c2ccccc2-c2ccccc21
Reply | 148 to 152 °C
